Test system: MALME-3M melanoma
ASSAY_PROCEDURE: NCI tumour cell line growth inhibition, 48 h; in the data active means GI50 below about 0.43 µM; inactive means the rest
// classify into active, inactive

>  <MOLECULE>
Nc1ccc2c(c1)C(=O)C(=O)c1c-2nc2ccccn12

>  <EXPERIMENTAL_TARGET>
MALME-3M melanoma

>  <QUALITATIVE_LABEL>
active

$$$$

Now let's try a different one.
## Task Given "Cc1cccc(NC(=O)CCc2ccc(N3C(N)=NC(N)=NC3(C)C)cc2)c1" , state the outcome it received in this test.
## Result inactive

---

Tested on: OVCAR-8 ovarian
ASSAY_PROCEDURE: NCI tumour cell line growth inhibition, 48 h
Label 1 when TGI >= 30 µM; otherwise -1.

>  <COMPOUND>
CC(=O)OC12/C(=N/O)CCCCCC1c1ccccc12 (configuration not stated)

>  <QUALITATIVE_LABEL>
1

$$$$
>  <COMPOUND>
COC(=O)C1=C(c2ccc(OC)c(OC)c2)OC(c2ccc(OC)c(OC)c2)C1 (configuration not stated)

>  <QUALITATIVE_LABEL>
1

$$$$
>  <COMPOUND>
Cc1ccccc1C(=O)c1c(O)c2c(c(O)c1Br)CCCC2

>  <QUALITATIVE_LABEL>
1

$$$$
>  <COMPOUND>
COc1cc2c[n+](C)c3c4cc(OC)c(OC)cc4c(OC)cc3c2cc1OC

>  <QUALITATIVE_LABEL>
-1

$$$$

Consider now this further compound.
## Task Is TGI at least 30 µM? Consider "O=C1c2c(Cl)c(Cl)c(Cl)c(Cl)c2C(=O)N1CCN(c1c(Cl)ssc1=O)c1c(Cl)ssc1=O"
## Result 1

---

Test system: LXFL 529 NSCLC
ASSAY_PROCEDURE: NCI tumour cell line growth inhibition, 48 h
# TGI per record follows

// solved cases for TGI follow
>  <MOLECULE>
CN1N=CSC12C(=O)N(c1ccc(Cl)cc1)C(=O)N2c1ccc(Cl)cc1 (stereo unspecified)

>  <VALUE>
> 100 µM

$$$$
>  <MOLECULE>
CC(NS(=O)(=O)c1ccc([N+](=O)[O-])cc1)C(=O)O (stereo unspecified)

>  <VALUE>
> 100 µM

$$$$
>  <MOLECULE>
COc1ccc(C(=O)c2cc(OC)c(OC)c(OC)c2)cc1

>  <VALUE>
> 100 µM

$$$$
>  <MOLECULE>
O=C(Nc1c(O)[nH]c(=S)[nH]c1=O)c1ccccc1F

>  <VALUE>
> 100 µM

$$$$
>  <MOLECULE>
COc1cc(/C=C/c2ccncc2)cc(OC)c1OC

>  <VALUE>
> 100 µM

$$$$

Given the molecule COC(=O)C1=C(c2ccc(OC)c(OC)c2)OC(c2ccc(OC)c(OC)c2)C1 (stereo unspecified) and test system LXFL 529 NSCLC, the measured TGI is 62.1 µM

// assay LXFL 529 NSCLC, entry "Cc1ccccc1C(=O)c1c(O)c2c(c(O)c1Br)CCCC2" , TGI value = 26.9 µM

Let me check: "COc1c(C=O)c2c(c(OC)c1OC)-c1ccc(OC)c(=O)cc1[C@@H](NC(C)=O)CC2" , system LXFL 529 NSCLC, measured TGI is > 100 µM

The reported LXFL 529 NSCLC TGI of CC1CC(C2=CC=CCS2)=Nc2ccccc2S1 (stereo unspecified) is > 100 µM

Kindly note: LXFL 529 NSCLC, CC(C)(C)OC1=C(OC(C)(C)C)C(O)(c2ccccc2)C1=O (stereo unspecified) , TGI value reported: > 100 µM

---

System: HCC-2998 colon
ASSAY_PROCEDURE: NCI tumour cell line growth inhibition, 48 h; in the data active = GI50 below about 0.43 µM; inactive = the rest
Return exactly one item of T (active), F (inactive)

Sample answers from the record:
>  <COMPOUND>
O=C1c2ccccc2-c2c1c1ccccc1c(=O)n2CCCCNCCCn1c2c(c3ccccc3c1=O)C(=O)c1ccccc1-2

>  <EXPERIMENTAL_TARGET>
HCC-2998 colon

>  <QUALITATIVE_LABEL>
F

$$$$
>  <COMPOUND>
Clc1ccc(CSC(Cn2ccnc2)c2ccc(Cl)cc2Cl)cc1 (stereo not drawn)

>  <EXPERIMENTAL_TARGET>
HCC-2998 colon

>  <QUALITATIVE_LABEL>
F

$$$$
>  <COMPOUND>
CC(=O)NCCc1c2c(c3nccc4c3c1Nc1ccccc1-4)OCS2

>  <EXPERIMENTAL_TARGET>
HCC-2998 colon

>  <QUALITATIVE_LABEL>
F

$$$$

## Task Please let me know the test result on file for "CC(C)[C@]12O[C@H]1[C@@H]1O[C@]13[C@]1(O[C@H]1C[C@H]1C4=C(CC[C@@]13C)C(=O)OC4)[C@@H]2O" .
## Result T

## Task So what was the verdict on CCS(=O)(=O)N1CCC(C(C)n2c(C)c(C(=O)NCc3c(OC)cc(C)[nH]c3=O)c3ccccc32)CC1 (stereo not drawn) in this test?
## Result F

## Task # lookup: test call for "COc1cc(NS(C)(=O)=O)ccc1Nc1c2ccc([N+](=O)[O-])cc2nc2c(C)cccc12"
## Result F

## Task Record request — test call for "CCNC(=O)[C@@H]1CCCN2C(=O)CC[C@H](NC(=O)[C@H](Cc3ccc(OP(=O)(O)O)cc3)NC(C)=O)C(=O)N12"
## Result F

## Task Recorded test call requested for OC(c1cccc(-n2ccc(C(F)(F)F)n2)c1)c1cnccc1NC1CCCCCC1 (stereo not drawn)
## Result F

---

Tested on: SR leukemia
ASSAY_PROCEDURE: NCI tumour cell line growth inhibition, 48 h
Where a name gives a salt, the structure may show the parent alone. Where a SMILES comes first, the peptide text is derived from it. The star is where a group is joined. Tfa = O=C(C(F)(F)F)*
OBSERVABLE: TGI

Solved entries (count: 5):
>  <COMPOUND>
Cc1c2c(c(C)n1-c1ccccc1)C(=O)N(CCCCN1CCN(c3ccccc3)CC1)C2=O

>  <TGI>
27 µM

$$$$
>  <COMPOUND>
O=C(Nc1nnc(-c2ccccc2)o1)C(SC(=S)N1CCCCC1)c1ccccc1 (stereo not given)

>  <TGI>
> 100 µM

$$$$
>  <COMPOUND>
CN1N=CSC12C(=O)N(c1ccc(Cl)cc1)C(=O)N2c1ccc(Cl)cc1 (stereo not given)

>  <TGI>
> 100 µM

$$$$
>  <COMPOUND>
COc1ccccc1/C=C(\C#N)c1ccccc1

>  <TGI>
48.8 µM

$$$$
>  <COMPOUND>
O=C(O)CC(NC(=O)C(F)(F)F)C(=O)NC(Cc1ccc(O)cc1)C(=O)O (stereo not drawn) (Tfa-Asp-Tyr-OH; configuration not given here)

>  <TGI>
> 50 µM

$$$$

Consider "Cc1c(NC(=S)NN)c(=O)n(-c2ccccc2)n1C" . Its measured TGI is > 100 µM

Measured TGI of "COc1cc2c(/C=C3/C(=O)N(C)c4ccccc43)c(Cl)[nH]c2cc1C" : 10.2 µM

Consider "O=C(CN1CCN(Cc2ccccc2)CC1)c1ccc2[nH]c(=O)oc2c1" . Its measured TGI is > 100 µM

TGI in this record for "COc1cc2c(cc1OC)-c1cc3ccccc3c[n+]1CC2" : > 100 µM

Entry under test: "COc1cccc2c1C(=O)C=CC2=O" . Its TGI was 1.02 µM

---

Test system: MCF7 breast
ASSAY_PROCEDURE: NCI tumour cell line growth inhibition, 48 h
Reported TGI by item:

Field: example entries. Status: answers known.
>  <COMPOUND>
Oc1ccc(-c2csc(NNC3=NC/C(=C/c4ccc5c(c4)OCO5)S3)n2)cc1O

>  <TGI>
> 100 µM

$$$$
>  <COMPOUND>
O=C(O)C/C(=C\c1ccco1)C(=O)O

>  <TGI>
> 100 µM

$$$$
>  <COMPOUND>
O=S(=O)(O)c1c(Cl)cc(O)c2ncccc12

>  <TGI>
> 100 µM

$$$$
>  <COMPOUND>
O=[N+]([O-])c1ccc(S(=O)(=O)Cc2ccccc2)c([N+](=O)[O-])c1

>  <TGI>
3.65 µM

$$$$
>  <COMPOUND>
Nc1ccc2c(c1)C(=O)C(=O)c1c-2nc2ccccn12

>  <TGI>
3.07 µM

$$$$
>  <COMPOUND>
Cc1cc2nc(C(C)C(=O)c3ccc(Cl)cc3)c(=O)[nH]c2cc1C (stereo unspecified)

>  <TGI>
> 100 µM

$$$$

Item: "Cc1c2cc[n+](C)cc2c(C)c2c1sc1ccccc12" | TGI: 41.8 µM

// TGI value for "ClCCCN(CCCCl)c1ccc(C=Nc2cccc(Cl)c2)cc1" : > 70.4 µM

---

System: MALME-3M melanoma
ASSAY_PROCEDURE: NCI tumour cell line growth inhibition, 48 h
OBSERVABLE: TGI (µM)
Give the number; µM is assumed, so skip it.

>  <MOLECULE>
COc1ccc2[nH]c(=O)c3c4ccccc4cn3c2c1

>  <TGI (µM)>
2.48

$$$$
>  <MOLECULE>
C=C1C(=O)O[C@H]2[C@H]1CC/C(CNC(=O)Cc1c[nH]c3ccccc13)=C\CC[C@@]1(C)O[C@@H]21

>  <TGI (µM)>
7.39

$$$$

"O=[N+]([O-])c1ccc(S(=O)(=O)Cc2ccccc2)c([N+](=O)[O-])c1" has a reported TGI of 6.2

Query "Cc1c(C#N)c2nnn(-c3ccc(Cl)cc3)c(=O)n2c1-c1ccccc1" yields TGI of 34.4

According to the records, this molecule CC1CC[C@]2(C(=O)O)CCC3(COC(=O)/C=C\c4ccc(O)cc4)C(=CCC4[C@@]5(C)CC[C@H](O)C(C)(C)C5CC[C@]43C)[C@@H]2[C@H]1C (stereo partly drawn) displays TGI of 87.9
